B1: Serine/threonine-protein kinase A-Raf, residues 21 to 89; numbered along this chain, P10398 (parent)
chain: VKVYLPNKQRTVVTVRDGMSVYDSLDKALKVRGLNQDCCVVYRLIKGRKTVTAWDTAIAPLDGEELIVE

Variants of: B1
experiment.summary: abundance fitness (aPCA) (normalised: wild type 0, dead -1); higher = more abundant; growth selection in yeast, the domain comes from the species named
conditions.used: Homo sapiens
The following variants are listed with their measured abundance fitness values.

[
  {
    "mutations": "V41L",
    "abundance fitness": -0.143
  },
  {
    "mutations": "V31F",
    "abundance fitness": -0.187
  },
  {
    "mutations": "R48K",
    "abundance fitness": 0.097
  },
  {
    "mutations": "K2L",
    "abundance fitness": -0.349
  },
  {
    "mutations": "N35I",
    "abundance fitness": -0.682
  },
  {
    "mutations": "C38Y",
    "abundance fitness": -0.082
  },
  {
    "mutations": "D55R",
    "abundance fitness": -0.343
  },
  {
    "mutations": "D17A",
    "abundance fitness": 0.039
  },
  {
    "mutations": "Y4L",
    "abundance fitness": 0.068
  },
  {
    "mutations": "D17L",
    "abundance fitness": -0.319
  },
  {
    "mutations": "D55T",
    "abundance fitness": -0.335
  },
  {
    "mutations": "V51Y",
    "abundance fitness": -0.255
  },
  {
    "mutations": "I45C",
    "abundance fitness": -0.458
  },
  {
    "mutations": "Y42M",
    "abundance fitness": -0.684
  },
  {
    "mutations": "Q9H",
    "abundance fitness": -0.559
  },
  {
    "mutations": "L44D",
    "abundance fitness": -0.65
  },
  {
    "mutations": "L25H",
    "abundance fitness": -1.06
  },
  {
    "mutations": "G63K",
    "abundance fitness": -0.722
  },
  {
    "mutations": "L34S",
    "abundance fitness": -0.835
  },
  {
    "mutations": "V31M",
    "abundance fitness": -0.045
  },
  {
    "mutations": "K2N",
    "abundance fitness": -0.139
  },
  {
    "mutations": "D37R",
    "abundance fitness": -0.198
  },
  {
    "mutations": "Y42L",
    "abundance fitness": -1.02
  },
  {
    "mutations": "T56P",
    "abundance fitness": -0.614
  },
  {
    "mutations": "T56F",
    "abundance fitness": -0.693
  },
  {
    "mutations": "S24N",
    "abundance fitness": -0.469
  },
  {
    "mutations": "N7G",
    "abundance fitness": 0.041
  },
  {
    "mutations": "V21T",
    "abundance fitness": -0.964
  },
  {
    "mutations": "S24P",
    "abundance fitness": -0.896
  },
  {
    "mutations": "K49R",
    "abundance fitness": -0.135
  },
  {
    "mutations": "T56I",
    "abundance fitness": -0.47
  },
  {
    "mutations": "R32Y",
    "abundance fitness": -0.012
  },
  {
    "mutations": "S20G",
    "abundance fitness": -0.94
  },
  {
    "mutations": "N35M",
    "abundance fitness": -0.321
  },
  {
    "mutations": "E64G",
    "abundance fitness": -0.25
  },
  {
    "mutations": "D23R",
    "abundance fitness": -0.283
  },
  {
    "mutations": "D37P",
    "abundance fitness": -0.662
  },
  {
    "mutations": "V31P",
    "abundance fitness": -0.41
  },
  {
    "mutations": "K2W",
    "abundance fitness": -0.314
  },
  {
    "mutations": "D23Q",
    "abundance fitness": 0.118
  }
]
